biological target: hA2B receptors expressed in CHO cells (Homo sapiens, UniProt P29275); construct: expressed in transfected cells; host or cells: CHO cells; test: cAMP assay hA2B CHO cells; type: cell-based; settings: ratio hA3 IC50 / hA2B EC50
Sequence (P29275 whole entry): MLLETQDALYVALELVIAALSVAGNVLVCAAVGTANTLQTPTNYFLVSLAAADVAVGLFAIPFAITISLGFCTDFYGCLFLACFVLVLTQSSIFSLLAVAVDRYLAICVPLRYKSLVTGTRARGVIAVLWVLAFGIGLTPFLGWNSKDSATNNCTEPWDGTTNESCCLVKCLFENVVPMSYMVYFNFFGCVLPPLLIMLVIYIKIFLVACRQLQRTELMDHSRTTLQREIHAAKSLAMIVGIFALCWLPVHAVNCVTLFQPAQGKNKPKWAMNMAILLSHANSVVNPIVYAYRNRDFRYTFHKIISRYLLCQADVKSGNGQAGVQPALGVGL
Measured Selectivity hA3/hA2B by item

For orientation, consider the following solved cases.
Molecule: CCNC(=O)[C@H]1O[C@@H](n2cnc3c(NNC(=O)c4ccc(C)s4)nc(Cl)nc32)[C@H](O)[C@@H]1O [Compound 19b]
Selectivity hA3/hA2B: >5.71
//
Molecule: CCNC(=O)[C@H]1O[C@@H](n2cnc3c(NNC(=O)Cc4cccs4)nc(Cl)nc32)[C@H](O)[C@@H]1O [Compound 20b]
Selectivity hA3/hA2B: 0.11

Turning to the following molecule.
Looking for the measured Selectivity hA3/hA2B of CCNC(=O)[C@H]1O[C@@H](n2cnc3c(NNC(=O)c4ccco4)nc(Cl)nc32)[C@H](O)[C@@H]1O [Compound 18b] , can you help?
>4.76

* * *

Measured pIC50 by item
biological target: human A3 receptors in CHO cells (Homo sapiens, UniProt P0DMS8); experiment: cAMP assay hA3 CHO cells; details: cyclic AMP assay, mean ± s.e. mean
Sequence (P0DMS8 whole entry): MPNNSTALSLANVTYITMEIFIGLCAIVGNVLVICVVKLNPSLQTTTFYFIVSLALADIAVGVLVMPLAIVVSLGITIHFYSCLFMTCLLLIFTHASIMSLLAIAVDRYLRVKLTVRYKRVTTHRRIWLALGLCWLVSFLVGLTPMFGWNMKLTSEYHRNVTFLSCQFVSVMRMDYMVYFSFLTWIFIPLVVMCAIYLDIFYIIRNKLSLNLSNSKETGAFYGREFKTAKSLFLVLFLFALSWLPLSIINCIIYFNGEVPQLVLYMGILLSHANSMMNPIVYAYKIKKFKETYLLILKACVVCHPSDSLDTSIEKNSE
pIC50: −log10 of the molar value.

For orientation, consider the following solved cases.
Molecule: CCNC(=O)[C@H]1O[C@@H](n2cnc3c(NNC(=O)c4sccc4C)nc(Cl)nc32)[C@H](O)[C@@H]1O [Compound 23b]
pIC50: < 6.00
//
Molecule: CCNC(=O)[C@H]1O[C@@H](n2cnc3c(NNC(=O)c4ccc(C)s4)ncnc32)[C@H](O)[C@@H]1O [Compound 16b]
pIC50: < 6.00

Identify the measured pIC50 of CCNC(=O)[C@H]1O[C@@H](n2cnc3c(NNC(=O)c4ccc[nH]4)nc(Cl)nc32)[C@H](O)[C@@H]1O [Compound 24b] for human A3 receptors in CHO cells (Homo sapiens, UniProt P0DMS8).
< 6.00

* * *

Quantity measured: melting point

Molecule: CCNC(=O)[C@H]1O[C@@H](n2cnc3c(NNC(=O)c4ccccc4)nc(Cl)nc32)[C@H](O)[C@@H]1O [Compound 17b]
melting point: 253 to 254 °C
//
Molecule: CCNC(=O)[C@H]1O[C@@H](n2cnc3c(NNC(=O)c4sccc4C)nc(Cl)nc32)[C@H](O)[C@@H]1O [Compound 23b]
melting point: 160 to 161 °C

Looking for the measured melting point of CCNC(=O)[C@H]1O[C@@H](n2cnc3c(NNC(=O)c4cc(-c5ccccc5)on4)nc(Cl)nc32)[C@H](O)[C@@H]1O [Compound 26b] , can you help?
169 to 170 °C

* * *

Measured pEC50 by item
biological target: hA2B receptors expressed in CHO cells (Homo sapiens, UniProt P29275); test: cAMP assay hA2B CHO cells; conditions: stimulation of cAMP levels, hA2B CHO cells; mean ± s.e. mean
Keep in mind that pEC50 stands for -log10 of concentration in molar terms.

For orientation, consider the following solved cases.
Compound: CCNC(=O)[C@H]1O[C@@H](n2cnc3c(NNC(=O)c4ccc(C)s4)nc(Cl)nc32)[C@H](O)[C@@H]1O [Compound 19b]
pEC50: 6.76
--
Compound: CCNC(=O)[C@H]1O[C@@H](n2cnc3c(NNC(=O)c4ccsc4)nc(Cl)nc32)[C@H](O)[C@@H]1O [Compound 21b]
pEC50: 6.35
--
Compound: CCNC(=O)[C@H]1O[C@@H](n2cnc3c(NNC(=O)c4sccc4C)nc(Cl)nc32)[C@H](O)[C@@H]1O [Compound 23b]
pEC50: 6.47
--
Compound: CCNC(=O)[C@H]1O[C@@H](n2cnc3c(NNC(=O)c4ccc(C)s4)ncnc32)[C@H](O)[C@@H]1O [Compound 16b]
pEC50: 6.56
--
Compound: CCNC(=O)[C@H]1O[C@@H](n2cnc3c(NNC(=O)c4cccs4)nc(Cl)nc32)[C@H](O)[C@@H]1O [Compound 22b]
pEC50: 6.70

Looking for the measured pEC50 of CCNC(=O)[C@H]1O[C@@H](n2cnc3c(NNC(=O)c4ccco4)ncnc32)[C@H](O)[C@@H]1O [Compound 12b] , can you help?
7.09

Proceed to CCNC(=O)[C@H]1O[C@@H](n2cnc3c(NNC(=O)c4ccc(C)o4)ncnc32)[C@H](O)[C@@H]1O [Compound 14b]
6.64

Proceed to CCNC(=O)[C@H]1O[C@@H](n2cnc3c(NNC(=O)c4ccco4)nc(Cl)nc32)[C@H](O)[C@@H]1O [Compound 18b]
6.68

Proceed to CCNC(=O)[C@H]1O[C@@H](n2cnc3c(NNC(=O)c4ccc[nH]4)nc(Cl)nc32)[C@H](O)[C@@H]1O [Compound 24b]
6.44

Values compiled from patent US7691825B2.
